- targetOfAssay: furin, P09958;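 also: purified furin at 1:10 enzyme:substrate in 50 mM HEPES pH 7.5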
- Sequence (P09958 whole entry): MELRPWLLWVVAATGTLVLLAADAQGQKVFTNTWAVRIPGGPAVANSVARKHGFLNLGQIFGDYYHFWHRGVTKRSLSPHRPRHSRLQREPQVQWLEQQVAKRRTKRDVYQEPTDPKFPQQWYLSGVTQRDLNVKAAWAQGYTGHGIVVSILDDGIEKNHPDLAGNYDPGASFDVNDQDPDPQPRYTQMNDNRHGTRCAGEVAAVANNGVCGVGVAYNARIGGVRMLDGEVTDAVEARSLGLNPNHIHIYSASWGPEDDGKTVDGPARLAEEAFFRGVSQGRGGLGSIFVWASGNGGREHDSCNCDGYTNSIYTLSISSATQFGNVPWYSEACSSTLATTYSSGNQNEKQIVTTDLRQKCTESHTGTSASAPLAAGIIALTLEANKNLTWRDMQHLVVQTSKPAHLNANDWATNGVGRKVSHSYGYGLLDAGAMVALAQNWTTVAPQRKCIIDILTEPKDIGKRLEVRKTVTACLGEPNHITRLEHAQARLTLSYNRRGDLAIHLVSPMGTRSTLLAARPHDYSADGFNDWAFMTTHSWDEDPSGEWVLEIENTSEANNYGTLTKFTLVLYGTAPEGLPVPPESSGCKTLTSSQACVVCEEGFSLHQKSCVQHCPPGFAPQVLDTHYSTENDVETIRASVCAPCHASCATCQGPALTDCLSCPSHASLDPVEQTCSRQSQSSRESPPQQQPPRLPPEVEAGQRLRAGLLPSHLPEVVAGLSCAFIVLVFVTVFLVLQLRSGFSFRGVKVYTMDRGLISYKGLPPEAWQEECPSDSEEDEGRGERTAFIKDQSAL
- procedureDetails: furin cleavage Z-score vs untreated control; higher = more cleavage, active = 3.5 or more, inactive = 1 or less, 8 variable residues between constant flanks
- conditions: 7.5 min
This is one part of the list. The true hit rate is not given.
Possible outcomes: 1 (yes) (active), 0 (no) (inactive)

> print(dat)
                        residues  qualitativelabel
 1  CALKKRSYFGAGNASASA [FS-2870]            0 (no)
 2   CAPDVVCCSMAGNASASA [HC2119]            0 (no)
 3   CATTPCSPSWAGNASASA [HC1899]            0 (no)
 4    CASGDVVVVAAGNASASA [HC875]            0 (no)
 5  CAMRLRIRRMAGNASASA [FS-1601]           1 (yes)
 6   CAAAILRRHVAGNASASA [HC1110]            0 (no)
 7   CATTPCSGHWAGNASASA [HC1915]            0 (no)
 8   CAAGVGIYLLAGNASASA [HC1661]            0 (no)
 9  CARLRKQARAAGNASASA [FS-2711]            0 (no)
10    CASRSLTPCTAGNASASA [HC719]            0 (no)
11   CAVPRRPARAAGNASASA [FS-150]           1 (yes)
12   CAAAIREKRAAGNASASA [FS-153]           1 (yes)
13   CAVEFLVQAWAGNASASA [HC1471]            0 (no)
14    CAMETKLITWAGNASASA [HC650]            0 (no)
15    CAEVVESTWVAGNASASA [HC133]            0 (no)
16  CACWPRHRRVAGNASASA [FS-1314]            0 (no)
17    CAGGVVLVGLAGNASASA [HC570]            0 (no)
18   CARDVVCCSMAGNASASA [HC2113]            0 (no)
19   CAGGRAAICGAGNASASA [HC1628]            0 (no)
20   CASVCCSMSYAGNASASA [HC1997]            0 (no)
21    CATQRRGRTGAGNASASA [HC903]            0 (no)
22    CALITWGADTAGNASASA [HC652]            0 (no)
23  CARSARDTAQAGNASASA [FS-3168]           1 (yes)
24  CARSARDVSSAGNASASA [FS-2302]           1 (yes)
25  CARSARPLVQAGNASASA [FS-2085]            0 (no)
26   CALADREKRAAGNASASA [FS-683]           1 (yes)
